Assay Overview: PK profile in beagles (i.v. / oral gavage, plasma LC-MS)
Type: in vivo
Condition Context: female, beagle, dog, po, GEN1-284s dosed p.o. 5 mg/kg, analyte = labelled compound
Measured Metric: bioavailability

Quick one: bioavailability of `O=C(Cc1ccc2ncccc2c1)N1CCC(n2c(=O)[nH]c3cccc(C(F)(F)F)c32)CC1` ?
89.8%

---

So I've got a bunch of molecules here, and I need their AUC(0-t) values.
Assay Overview: PK profile in beagles (i.v. / oral gavage, plasma LC-MS)
Format: in vivo
Condition Context: female, beagle, dog, iv, GEN1-284s dosed i.v. 0.5 mg/kg, analyte = labelled compound
Show the value, then the unit it is measured in.

Quick check: AUC(0-t) of O=C(Cc1ccc2ncccc2c1)N1CCC(n2c(=O)n(COP(=O)([O-])[O-])c3cccc(C(F)(F)F)c32)CC1.[Na+].[Na+] [GEN1-284 salt] ?
207 ng·h/mL

How about `O=C(Cc1ccc2ncccc2c1)N1CCC(n2c(=O)[nH]c3cccc(C(F)(F)F)c32)CC1` ?
2000 ng·h/mL

---

Assay Overview: PK profile in SD rats (i.v. / oral gavage, plasma LC-MS)
Assay type: in vivo
Condition Context: female, rat, po, 10 mg/kg, GEN1-284s dosed p.o. 10 mg/kg, analyte = labelled compound
Measured Metric: half-life (min)
Give a bare numeral; the unit min is implied.

# query: half-life of entry `O=C(Cc1ccc2ncccc2c1)N1CCC(n2c(=O)[nH]c3cccc(C(F)(F)F)c32)CC1`
229

---

System: hERG ion channel (Homo sapiens)
Construct: expressed in transfected cells; host or cells: CHO cells, stably transfected
Assay Overview: hERG ion channel inhibition, automated QPatch on CHO cells expressing hERG
Format: cell-based
Condition Context: human, CHO cells stably expressing hERG channels, 3 μM; read-out: % of hERG inhibition, Cell 2
Measured Metric: inhibition at 3 µM (%)
Provide only the numeric value, understood in %.

So what's the measured inhibition at 3 µM for this one? O=C(Cc1ccc2ncccc2c1)N1CCC(n2c(=O)n(COP(=O)([O-])[O-])c3cccc(C(F)(F)F)c32)CC1.[Na+].[Na+] [GEN1-284 salt]
2.66

Next record, please: `O=C(Cc1ccc2ncccc2c1)N1CCC(n2c(=O)[nH]c3cccc(C(F)(F)F)c32)CC1`
13.3

---

Assay Overview: PK profile in SD rats (i.v. / oral gavage, plasma LC-MS)
Format: in vivo
Condition Context: female, rat, iv, 1 mg/kg, GEN1-117 dosed i.v. 1 mg/kg
Measured Metric: AUC(0-t) (ng·h/mL)
Form entry: value (ng·h/mL) — number only.

Entry `O=C(Cc1ccc2ncccc2c1)N1CCC(n2c(=O)[nH]c3cccc(C(F)(F)F)c32)CC1` : reported AUC(0-t) = ?
1640

---

Assay Overview: PK profile in SD rats (i.v. / oral gavage, plasma LC-MS)
Assay type: in vivo
Condition Context: female, rat, po, 10 mg/kg, GEN1-284s dosed p.o. 10 mg/kg, analyte = labelled compound
Measured Metric: Cmax (ng/mL)
Response body: numeric value in ng/mL, unit text excluded.

Consider the molecule shown here: `O=C(Cc1ccc2ncccc2c1)N1CCC(n2c(=O)[nH]c3cccc(C(F)(F)F)c32)CC1` What is its recorded Cmax?
2440

---

Assay Overview: PK profile in SD rats (i.v. / oral gavage, plasma LC-MS)
Type: in vivo
Condition Context: female, rat, iv, GEN1-284s dosed i.v. 1 mg/kg, analyte = labelled compound
Measured Metric: clearance (mL/min/kg)
Write it as a number; the unit mL/min/kg goes unstated.

Entry O=C(Cc1ccc2ncccc2c1)N1CCC(n2c(=O)n(COP(=O)([O-])[O-])c3cccc(C(F)(F)F)c32)CC1.[Na+].[Na+] [GEN1-284 salt] has what clearance?
6.23

---

Assay Overview: PK profile in SD rats (i.v. / oral gavage, plasma LC-MS)
Assay type: in vivo
Condition Context: female, rat, po, 10 mg/kg, GEN1-284s dosed p.o. 10 mg/kg, analyte = labelled compound
Description: […]
Measured Metric: Tmax (h)
Field format: number, assumed h, no unit text.

Tmax for `O=C(Cc1ccc2ncccc2c1)N1CCC(n2c(=O)[nH]c3cccc(C(F)(F)F)c32)CC1` ?
2

Same lookup for O=C(Cc1ccc2ncccc2c1)N1CCC(n2c(=O)n(COP(=O)([O-])[O-])c3cccc(C(F)(F)F)c32)CC1.[Na+].[Na+] [GEN1-284 salt] , please.
0.42

---

Assay Overview: PK profile in SD rats (i.v. / oral gavage, plasma LC-MS)
Format: in vivo
Condition Context: female, rat, iv, GEN1-284s dosed i.v. 1 mg/kg, analyte = labelled compound, read-out: Vdss
Measured Metric: Vd (L/kg)
Use L/kg as the unit, but write only the number.

Look up Vd: O=C(Cc1ccc2ncccc2c1)N1CCC(n2c(=O)n(COP(=O)([O-])[O-])c3cccc(C(F)(F)F)c32)CC1.[Na+].[Na+] [GEN1-284 salt]
0.047

---

Field: inhibition at 0.1 µM. Provide a value for each of the compounds that follow.
System: hERG (Homo sapiens)
Construct: expressed in transfected cells; host or cells: CHO cells, stably transfected
Sequence (Q12809 whole entry): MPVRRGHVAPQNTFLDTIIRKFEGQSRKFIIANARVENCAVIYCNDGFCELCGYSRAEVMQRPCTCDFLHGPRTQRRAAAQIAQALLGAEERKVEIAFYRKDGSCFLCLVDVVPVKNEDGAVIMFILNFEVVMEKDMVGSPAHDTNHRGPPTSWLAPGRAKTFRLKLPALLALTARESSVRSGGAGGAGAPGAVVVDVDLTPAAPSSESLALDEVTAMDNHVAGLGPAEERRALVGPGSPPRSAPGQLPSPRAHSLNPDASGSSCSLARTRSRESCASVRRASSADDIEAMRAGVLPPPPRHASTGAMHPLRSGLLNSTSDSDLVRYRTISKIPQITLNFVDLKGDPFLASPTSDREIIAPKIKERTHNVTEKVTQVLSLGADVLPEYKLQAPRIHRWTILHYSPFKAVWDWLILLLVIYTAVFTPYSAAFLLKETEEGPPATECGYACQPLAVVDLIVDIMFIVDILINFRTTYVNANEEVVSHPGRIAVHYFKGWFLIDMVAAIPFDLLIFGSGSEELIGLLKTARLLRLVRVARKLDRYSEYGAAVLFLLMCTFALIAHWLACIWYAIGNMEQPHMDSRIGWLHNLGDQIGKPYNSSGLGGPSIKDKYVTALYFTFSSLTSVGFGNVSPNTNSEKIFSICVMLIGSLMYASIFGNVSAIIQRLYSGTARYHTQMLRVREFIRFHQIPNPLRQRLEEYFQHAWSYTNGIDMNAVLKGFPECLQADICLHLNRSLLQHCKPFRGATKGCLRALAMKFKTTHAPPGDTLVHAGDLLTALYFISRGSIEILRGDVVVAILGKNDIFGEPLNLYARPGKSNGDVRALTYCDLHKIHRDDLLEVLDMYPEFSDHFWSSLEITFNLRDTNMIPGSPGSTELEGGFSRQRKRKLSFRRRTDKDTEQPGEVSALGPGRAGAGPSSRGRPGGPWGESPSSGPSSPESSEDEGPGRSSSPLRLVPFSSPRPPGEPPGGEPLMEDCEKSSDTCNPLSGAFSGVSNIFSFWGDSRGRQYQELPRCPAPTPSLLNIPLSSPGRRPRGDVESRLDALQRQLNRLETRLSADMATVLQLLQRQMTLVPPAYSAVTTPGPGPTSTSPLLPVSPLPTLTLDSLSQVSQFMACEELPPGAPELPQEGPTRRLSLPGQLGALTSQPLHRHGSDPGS
Assay Overview: hERG ion channel inhibition, automated QPatch on CHO cells expressing hERG
Format: cell-based
Condition Context: human, CHO cells stably expressing hERG channels, 0.1 μM; read-out: % of hERG inhibition, Cell 2
Write the quantity with the unit trailing the number.

Fill blank: measured inhibition at 0.1 µM of the compound `O=C(Cc1ccc2ncccc2c1)N1CCC(n2c(=O)[nH]c3cccc(C(F)(F)F)c32)CC1` is ____.
-0.21%

Also need O=C(Cc1ccc2ncccc2c1)N1CCC(n2c(=O)n(COP(=O)([O-])[O-])c3cccc(C(F)(F)F)c32)CC1.[Na+].[Na+] [GEN1-284 salt] , thanks.
8.28%

---

Could you please report measured half-life for the items listed next?
Assay Overview: PK profile in beagles (i.v. / oral gavage, plasma LC-MS)
Type: in vivo
Condition Context: female, beagle, dog, iv, GEN1-284s dosed i.v. 0.5 mg/kg, analyte = labelled compound
Numeric answer only, unit h assumed.

Quick check: half-life of O=C(Cc1ccc2ncccc2c1)N1CCC(n2c(=O)n(COP(=O)([O-])[O-])c3cccc(C(F)(F)F)c32)CC1.[Na+].[Na+] [GEN1-284 salt] ?
0.085

And then `O=C(Cc1ccc2ncccc2c1)N1CCC(n2c(=O)[nH]c3cccc(C(F)(F)F)c32)CC1` , what is it?
4.06

---

Assay Overview: PK profile in SD rats (i.v. / oral gavage, plasma LC-MS)
Format: in vivo
Condition Context: female, rat, po, 10 mg/kg, GEN1-117 dosed p.o. 10 mg/kg
Measured Metric: Cmax (ng/mL)
Give the value in ng/mL but do not write ng/mL after it.

GET /values?readout=Cmax&item= O=C(Cc1ccc2ncccc2c1)N1CCC(n2c(=O)[nH]c3cccc(C(F)(F)F)c32)CC1 [GEN1-117]
42.8

---

Assay Overview: PK profile in SD rats (i.v. / oral gavage, plasma LC-MS)
Assay type: in vivo
Condition Context: female, rat, po, GEN1-284s dosed p.o. 10 mg/kg, analyte = labelled compound
From the text: […]
Measured Metric: Cmax (ng/mL)
Please respond with the number in ng/mL and leave the unit unwritten.

Which Cmax reading was recorded for the compound O=C(Cc1ccc2ncccc2c1)N1CCC(n2c(=O)n(COP(=O)([O-])[O-])c3cccc(C(F)(F)F)c32)CC1.[Na+].[Na+] [GEN1-284 salt] ?
6.04

---

Assay Overview: PK profile in SD rats (i.v. / oral gavage, plasma LC-MS)
Assay type: in vivo
Condition Context: female, rat, iv, GEN1-284s dosed i.v. 1 mg/kg, analyte = labelled compound
Measured Metric: half-life (min)
Give your result in min as a bare value.

Quick check: half-life of O=C(Cc1ccc2ncccc2c1)N1CCC(n2c(=O)n(COP(=O)([O-])[O-])c3cccc(C(F)(F)F)c32)CC1.[Na+].[Na+] [GEN1-284 salt] ?
23.4

---

System: hERG ion channel (Homo sapiens, UniProt Q12809)
Construct: expressed in transfected cells; host or cells: CHO cells, stably transfected
Sequence (Q12809 whole entry): as above
Assay Overview: hERG ion channel inhibition, automated QPatch on CHO cells expressing hERG
Format: cell-based
Condition Context: human, CHO cells stably expressing hERG channels, 3 μM; read-out: Mean % hERG inhibition
Measured Metric: inhibition at 3 µM (%)
Reply numerically in %, unit not repeated.

Requested read-out: inhibition at 3 µM. Entry: `O=C(Cc1ccc2ncccc2c1)N1CCC(n2c(=O)[nH]c3cccc(C(F)(F)F)c32)CC1`
12.2

Also O=C(Cc1ccc2ncccc2c1)N1CCC(n2c(=O)n(COP(=O)([O-])[O-])c3cccc(C(F)(F)F)c32)CC1.[Na+].[Na+] [GEN1-284 salt] ?
1.33
